- system: P2RY6 (Homo sapiens, UniProt Q15077)
- Sequence (Q15077 whole entry): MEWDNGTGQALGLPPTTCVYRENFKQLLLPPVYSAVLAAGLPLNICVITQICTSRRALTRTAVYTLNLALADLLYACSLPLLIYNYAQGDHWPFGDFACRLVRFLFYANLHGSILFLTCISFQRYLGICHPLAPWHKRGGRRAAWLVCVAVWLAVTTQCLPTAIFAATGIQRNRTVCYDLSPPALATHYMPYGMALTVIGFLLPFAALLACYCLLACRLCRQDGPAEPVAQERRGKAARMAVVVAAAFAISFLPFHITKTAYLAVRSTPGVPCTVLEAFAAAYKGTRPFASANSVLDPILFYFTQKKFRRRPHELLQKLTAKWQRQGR
- assay summary: Arrestin agonist mode
- measurement context: read-out: RC50 (the source's name)
property name: EC50

- O=c1ccn([C@@H]2O[C@H](COP(=O)(O)OP(=O)(O)O)[C@@H](O)[C@H]2O)c(=O)[nH]1: 13.3 nM

###

- system: P2RY12 (Homo sapiens, UniProt Q9H244)
- Sequence (Q9H244 whole entry, one chain of several): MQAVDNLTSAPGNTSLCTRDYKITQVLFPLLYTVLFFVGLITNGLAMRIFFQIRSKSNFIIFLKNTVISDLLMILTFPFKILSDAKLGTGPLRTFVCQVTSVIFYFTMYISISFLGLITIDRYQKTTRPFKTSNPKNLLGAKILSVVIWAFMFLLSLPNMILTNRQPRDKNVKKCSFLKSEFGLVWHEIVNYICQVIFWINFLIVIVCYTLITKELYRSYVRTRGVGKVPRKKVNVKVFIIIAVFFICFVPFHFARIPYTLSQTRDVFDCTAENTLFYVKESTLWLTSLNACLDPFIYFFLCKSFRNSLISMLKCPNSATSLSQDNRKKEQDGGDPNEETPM
- assay summary: Arrestin agonist mode
- measurement context: read-out: RC50 (the source's name)
pEC50: −log10 of the molar value.
property name: pEC50

- CSc1nc(N)c2ncn([C@@H]3O[C@H](COP(=O)(O)OP(=O)(O)O)[C@@H](O)[C@H]3O)c2n1: 8.57

###

- system: EDG6 (Homo sapiens, UniProt O95977)
- Sequence (O95977 1-384): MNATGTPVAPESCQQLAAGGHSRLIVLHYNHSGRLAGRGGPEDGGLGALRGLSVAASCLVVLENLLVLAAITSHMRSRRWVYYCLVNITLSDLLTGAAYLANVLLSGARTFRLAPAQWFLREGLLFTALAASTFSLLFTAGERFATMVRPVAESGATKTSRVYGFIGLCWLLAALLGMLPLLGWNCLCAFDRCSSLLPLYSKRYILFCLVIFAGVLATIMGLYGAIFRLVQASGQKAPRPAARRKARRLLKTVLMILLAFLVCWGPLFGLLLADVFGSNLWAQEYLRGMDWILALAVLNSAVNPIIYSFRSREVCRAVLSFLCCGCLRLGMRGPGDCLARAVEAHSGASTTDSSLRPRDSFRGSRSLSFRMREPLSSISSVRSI
- assay summary: Arrestin agonist mode
- Assay type: cell-based
- measurement context: read-out: RC50 (the source's name)
property name: EC50 (nM)

• CCCCCCCCCCCCC/C=C/[C@@H](O)[C@@H](N)COP(=O)(O)O [S-1-P] = 30.5

###

- system: UniProt P43119
- Sequence (P43119 whole entry): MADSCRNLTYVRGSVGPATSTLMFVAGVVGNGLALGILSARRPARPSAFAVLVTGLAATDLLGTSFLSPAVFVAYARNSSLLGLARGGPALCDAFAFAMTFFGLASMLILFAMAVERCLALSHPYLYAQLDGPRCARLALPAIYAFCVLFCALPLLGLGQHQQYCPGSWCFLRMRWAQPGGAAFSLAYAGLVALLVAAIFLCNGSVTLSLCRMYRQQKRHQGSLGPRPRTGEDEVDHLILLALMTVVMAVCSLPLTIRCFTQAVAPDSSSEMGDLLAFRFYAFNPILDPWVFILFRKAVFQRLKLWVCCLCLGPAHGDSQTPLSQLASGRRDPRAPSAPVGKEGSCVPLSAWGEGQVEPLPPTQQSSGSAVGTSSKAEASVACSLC
- assay summary: Arrestin agonist mode
- Format: cell-based
- measurement context: read-out: RC50 (the source's name)
pEC50: −log10 of the molar value.
property name: pEC50

• CC#CCC(C)[C@H](O)/C=C/[C@@H]1[C@H]2c3cccc(CCCC(=O)O)c3O[C@H]2C[C@H]1O (mixture of isomers) = 6.66

###

- system: CRTH2 (Homo sapiens, UniProt Q9Y5Y4)
- Sequence (Q9Y5Y4 whole entry): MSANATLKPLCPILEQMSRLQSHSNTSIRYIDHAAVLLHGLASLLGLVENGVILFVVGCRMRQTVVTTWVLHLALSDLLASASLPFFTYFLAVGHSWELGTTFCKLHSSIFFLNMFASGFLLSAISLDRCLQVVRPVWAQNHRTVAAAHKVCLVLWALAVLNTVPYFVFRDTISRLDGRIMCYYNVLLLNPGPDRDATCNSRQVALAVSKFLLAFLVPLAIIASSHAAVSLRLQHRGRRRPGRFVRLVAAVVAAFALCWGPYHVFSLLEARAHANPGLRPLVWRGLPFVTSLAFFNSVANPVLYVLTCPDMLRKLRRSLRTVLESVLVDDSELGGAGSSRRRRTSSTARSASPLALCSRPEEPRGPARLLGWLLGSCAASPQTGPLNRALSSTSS
- assay summary: Arrestin agonist mode
- measurement context: read-out: RC50 (the source's name)
property name: EC50 (nM)

* CCCCC[C@H](O)/C=C/[C@H]1C(=O)C[C@H](O)[C@@H]1C/C=C\CCCC(=O)O | 3.34

###

- system: UniProt:P25105
- Sequence (P25105 whole entry): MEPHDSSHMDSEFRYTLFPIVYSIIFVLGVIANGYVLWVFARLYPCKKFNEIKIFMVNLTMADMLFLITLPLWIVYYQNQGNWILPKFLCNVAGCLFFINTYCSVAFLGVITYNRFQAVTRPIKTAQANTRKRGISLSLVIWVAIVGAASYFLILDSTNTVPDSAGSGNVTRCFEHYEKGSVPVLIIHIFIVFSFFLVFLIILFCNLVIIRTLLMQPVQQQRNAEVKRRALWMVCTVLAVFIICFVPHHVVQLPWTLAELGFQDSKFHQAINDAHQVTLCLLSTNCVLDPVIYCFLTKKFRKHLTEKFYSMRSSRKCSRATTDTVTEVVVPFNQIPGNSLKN
- assay summary: Arrestin agonist mode
- measurement context: read-out: RC50 (the source's name)
pEC50: −log10 of the molar value.
property name: pEC50

- CCCCCCCCCCCCCCCCOC[C@H](COP(=O)([O-])OCC[N+](C)(C)C)OC(C)=O: 8.42

###

- system: OXER1 (Homo sapiens, UniProt Q8TDS5)
- Sequence (Q8TDS5 whole entry): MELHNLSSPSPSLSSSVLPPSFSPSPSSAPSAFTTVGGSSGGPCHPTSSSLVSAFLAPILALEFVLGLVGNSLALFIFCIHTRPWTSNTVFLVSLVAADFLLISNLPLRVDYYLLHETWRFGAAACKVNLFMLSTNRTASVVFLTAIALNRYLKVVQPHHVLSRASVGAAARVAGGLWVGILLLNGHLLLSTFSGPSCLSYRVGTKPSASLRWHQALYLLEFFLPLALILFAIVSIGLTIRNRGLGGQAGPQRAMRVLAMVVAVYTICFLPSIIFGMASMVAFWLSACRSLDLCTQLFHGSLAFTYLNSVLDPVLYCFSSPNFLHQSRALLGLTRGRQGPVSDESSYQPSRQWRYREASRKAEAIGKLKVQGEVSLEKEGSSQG
- assay summary: Arrestin agonist mode
- measurement context: read-out: RC50 (the source's name)
property name: EC50 (nM)

* CCCCC/C=C\C/C=C\C/C=C\C=C\C(=O)CCCC(=O)O [5-OxoETE] | 1140
